Target: ALDH1a3 (Homo sapiens)
Sequence (P47895 whole entry): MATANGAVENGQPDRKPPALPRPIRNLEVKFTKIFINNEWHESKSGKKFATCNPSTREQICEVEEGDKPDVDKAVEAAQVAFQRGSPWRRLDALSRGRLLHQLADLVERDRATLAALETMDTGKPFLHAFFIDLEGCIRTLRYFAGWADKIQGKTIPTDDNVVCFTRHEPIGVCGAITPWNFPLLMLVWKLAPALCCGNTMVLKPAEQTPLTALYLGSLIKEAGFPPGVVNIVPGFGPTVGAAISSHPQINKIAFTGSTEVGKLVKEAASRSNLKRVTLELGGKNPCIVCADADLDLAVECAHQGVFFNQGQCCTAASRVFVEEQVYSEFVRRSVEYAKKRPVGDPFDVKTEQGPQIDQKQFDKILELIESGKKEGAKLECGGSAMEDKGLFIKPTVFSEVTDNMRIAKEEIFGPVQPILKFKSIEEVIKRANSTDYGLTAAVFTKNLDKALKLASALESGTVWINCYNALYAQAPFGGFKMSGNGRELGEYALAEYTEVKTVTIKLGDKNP
Assay: ALDEFLUOR assay in SUM159-M1a-Aldh1a3 cells
Type: cell-based
Design: lentiviral vectors containing either the vector backbone or full-length human Aldh1a3; expressed in transfected cells; host or cells: SUM159-M1a human breast cancer cells, lentiviral pLex vector
Settings: SUM159-M1a-Aldh1a3 cells; compound at 100 nM
// assign label 1 if Inhi-bitory Activity at 100 nM (%) falls strictly below 20%, else label 0 (ties count as label 0)

> print(dat)
                                 smiles.repr  class.assignment
 1  Cc1ccc(C(=O)Nc2ccc3c(c2)CCC(=O)N3)c(C)c1           label 1
 2     CCc1cnccc1C(=O)Nc1cc2c(cc1F)NC(=O)CC2           label 0
 3              O=C1CCc2cc(NCc3ccccc3)ccc2N1           label 1
 4         O=C1CCc2cc(NCc3cc[nH]c3)c(F)cc2N1           label 1
 5    Cc1cc(C(=O)Nc2cc3c(cc2F)NC(=O)CC3)ccn1           label 0
 6       O=C1CCc2cc(NC(=O)c3ccncc3)c(F)cc2N1           label 1
 7         CCc1cnccc1CNc1cc2c(cc1F)NC(=O)CC2           label 0
 8       Cc1ccccc1C(=O)Nc1ccc2c(c1)CCC(=O)N2           label 0
 9      Cc1cnccc1C(=O)Nc1cc2c(cc1F)NC(=O)CC2           label 1
10    Cc1ccc(C(=O)Nc2ccc3c(c2)CCC(=O)N3)cc1C           label 1
11      Cc1ccc(C)c(CNc2ccc3c(c2)CCC(=O)N3)c1           label 0

Data provenance: patent US20230128402A1
